# TARGET SYSTEM: UniProtKB P00390
# PROTOCOL DETAILS: Inhibitory activity against human glutathione reductase in presence of 100 uM GSSG
METRIC NAME: IC50

smi=Cn1c(=O)nc2n(-c3cc(C(F)(F)F)cc(C(F)(F)F)c3)c3ccccc3nc-2c1=O measured_value="5 µM"
smi=CCOC(=O)Cn1c(=O)nc2n(-c3ccc(Cl)cc3)c3ccccc3nc-2c1=O measured_value="18 µM"
smi=O=c1nc2n(-c3cc(C(F)(F)F)cc(C(F)(F)F)c3)c3ccccc3nc-2c(=O)[nH]1 measured_value="3.5 µM"
smi=Cn1c(=O)nc2n(-c3ccc(Cl)cc3)c3ccccc3nc-2c1=O measured_value="< 1 µM"

// below: IC50 requested for another molecule
input: Value lookup for IC50; key = Cn1c(=O)nc2n(-c3ccccc3)c3ccccc3nc-2c1=O
output: 2 µM

====

Measured pIC50 values are reported for all entries that follow.
# TARGET SYSTEM: Glutathione reductase, mitochondrial (Homo sapiens)
# Sequence (P00390 whole entry): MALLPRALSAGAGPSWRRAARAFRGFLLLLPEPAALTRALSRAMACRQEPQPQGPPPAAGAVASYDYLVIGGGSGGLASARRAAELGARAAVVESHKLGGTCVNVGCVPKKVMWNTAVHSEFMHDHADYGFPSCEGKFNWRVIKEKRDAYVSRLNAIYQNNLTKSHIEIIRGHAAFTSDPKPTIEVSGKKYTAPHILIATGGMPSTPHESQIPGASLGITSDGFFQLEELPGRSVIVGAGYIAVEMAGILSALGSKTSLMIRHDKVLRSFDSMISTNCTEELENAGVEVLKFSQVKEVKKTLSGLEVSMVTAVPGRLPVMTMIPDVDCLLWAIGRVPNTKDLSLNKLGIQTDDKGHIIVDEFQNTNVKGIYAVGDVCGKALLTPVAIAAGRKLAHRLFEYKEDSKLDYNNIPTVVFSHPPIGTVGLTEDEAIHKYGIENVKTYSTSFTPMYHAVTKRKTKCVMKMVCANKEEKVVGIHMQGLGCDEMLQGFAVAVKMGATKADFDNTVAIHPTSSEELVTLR
# PROTOCOL DETAILS: Inhibitory activity against human glutathione reductase in presence of 100 uM GSSG
Friendly reminder that pIC50 comes from taking -log10 of the concentration in mol/L.

Here is how some compounds turned out for pIC50.
smi=Cn1c(=O)nc2n(-c3ccc(Cl)cc3)c3cc(F)ccc3nc-2c1=O measured_value=6.00
smi=O=c1nc2n(-c3cccc(C(F)(F)F)c3)c3ccccc3nc-2c(=O)[nH]1 measured_value=6.00
smi=CCOC(=O)Cn1c(=O)nc2n(-c3cc(Cl)cc(Cl)c3)c3ccccc3nc-2c1=O measured_value=5.15
smi=Cn1c(=O)nc2n(-c3ccc(Cl)cc3)c3cc(N=[N+]=[N-])ccc3nc-2c1=O measured_value=5.60
smi=Cn1c(=O)nc2n(-c3cc[n+](C)cc3)c3ccccc3nc-2c1=O measured_value=4.40
smi=O=C(O)Cn1c(=O)nc2n(-c3cc(Cl)cc(Cl)c3)c3ccccc3nc-2c1=O measured_value=4.85

input: Value lookup for pIC50; key = O=C(O)Cn1c(=O)nc2n(-c3cccc(C(F)(F)F)c3)c3ccccc3nc-2c1=O
output: 4.70

input: Value lookup for pIC50; key = O=C(O)Cn1c(=O)nc2n(-c3ccc(Cl)cc3)c3ccccc3nc-2c1=O
output: 4.92

input: Value lookup for pIC50; key = Cn1c(=O)nc2n(-c3cccnc3)c3ccccc3nc-2c1=O
output: 5.10
